- Test system: MCF7
- Assay Overview: Alamar blue proliferation assay, growth inhibition of MCF7 breast cancer cells
- Format: cell-based, human
- Protocol Conditions: Homo sapiens, MCF7; MCF breast cancer cells, 72 h treatment; read-out: IC50 value
Observation Type: IC50 (nM)

a. C[C@@H]1C[C@H]2C[C@@H]2/C=C\C=C\[C@H](O)Cc2c(Cl)c(O)cc(O)c2C(=O)O1
b. C[C@@H]1C[C@H]2C[C@@H]2/C=C\C=C\[C@H](O)Cc2cc(O)cc(O)c2C(=O)O1
Please compare: a and b . Report which one has the smaller IC50 value. Identify your selection by its label.
b

----------
- Tested on: HER2
- Assay Overview: Her2 degradation in drug-treated MCF-7 cells by immunoblotting
- Type: cell-based, human
- Protocol Conditions: P85 control
Observation Type: concentration at which Her2 is degraded (µM)
Could you give me the number in µM? Just the number is fine.

Consider the worked cases shown below.
* C[C@@H]1C[C@H]2C[C@@H]2\C=C/C=C/C(=N\O)Cc2c(Cl)c(O)cc(O)c2C(=O)O1 [(Z)-30] | 0.3
* C[C@@H]1C[C@H]2C[C@@H]2/C=C\C=C\C(=O)Cc2c(Cl)c(O)cc(O)c2C(=O)O1 | 0.3
* C[C@@H]1C[C@@H]2[C@@H](/C=C\C=C\C(=O)Cc3c(Cl)c(O)cc(O)c3C(=O)O1)C2(F)F | 10
* C[C@@H]1C[C@@H]2[C@@H](/C=C\C=C\C(=O)Cc3cc(O)cc(O)c3C(=O)O1)C2(F)F | 1

Continue with the molecule presented below.
Find concentration at which Her2 is degraded (HER2) for the entry "C[C@@H]1C[C@H]2C[C@@H]2/C=C\C=C\[C@H](O)Cc2cc(O)cc(O)c2C(=O)O1"
0.3

----------
- Tested on: MCF7
- Assay Overview: Alamar blue proliferation assay, growth inhibition of MCF7 breast cancer cells
- Format: cell-based, human
- Protocol Conditions: Homo sapiens; MCF7 cells, 72 h treatment; read-out: IC50 (pM) Values of Cycloproparadicicol Analogues and Aigialomycin D
Observation Type: IC50 (pM)

* C[C@@H]1C[C@H]2C[C@@H]2/C=C\C=C\[C@H](O)Cc2c(Cl)c(O)cc(O)c2C(=O)O1 | 390000
* C[C@@H]1C[C@H]2C[C@@H]2/C=C\C=C\C(=O)Cc2c(Cl)c(O)cc(O)c2C(=O)O1 | 54000
* C[C@@H]1C[C@H]2C[C@@H]2\C=C/C=C/C(=N/O)Cc2c(Cl)c(O)cc(O)c2C(=O)O1 [(E)-30] | 282000
* C[C@@H]1C[C@@H]2[C@@H](/C=C\C=C\C(=O)Cc3c(Cl)c(O)cc(O)c3C(=O)O1)C2(F)F | 1e+07
* C[C@@H]1C[C@H]2C[C@@H]2/C=C\C=C\[C@H](O)Cc2cc(O)cc(O)c2C(=O)O1 | 150000

P. C[C@@H]1C[C@@H]2[C@@H](/C=C\C=C\C(=O)Cc3cc(O)cc(O)c3C(=O)O1)C2(F)F
Q. C[C@@H]1C[C@H]2C[C@@H]2\C=C/C=C/C(=N\O)Cc2c(Cl)c(O)cc(O)c2C(=O)O1 [(Z)-30]
Between P and Q , whose measured IC50 reads higher? Reply with the label of the item you choose.
P
(P: 3e+06 pM, Q: 98000 pM)
